These data points were gathered from PubChem BioAssay AID652126.

system: Nuclear hormone receptor DAF-12 (Strongyloides stercoralis); assay: S. stercoralis DAF-12 nuclear receptor activators, primary screen, cell-based, luminescence, HEK293, GRIP1 co-expression, lit1-tk-luc (AID 652126); conditions: HEK293 ssDAF-12/GRIP1 lit1-tk-luc reporter, at 6.8 µM, active compounds read high, % of 3 µM dafachronic acid response;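 also: 0% = DMSO-only wells and 100% = 3 µM delta7-dafachronic acid wells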
In all, about 370,000 compounds went through this assay and about 3,700 (1%) were called active. For the sample, actives were picked, then their nearest neighbours and some compounds at random.
What activation was measured for each of the following?
One number for each entry, in %.

Look over these answered cases.
- compound: "Fc1ccc2nc(Nc3nc4c(s3)CCCC4)sc2c1"
  parameter: "activation"
  value-reported: 1.92
- compound: "COc1ccnc(Oc2ccccc2)n1"
  parameter: "activation"
  value-reported: -0.92
- compound: "COc1ccc(C(=O)OCCN2CCN(C3CN(Cc4cn(Cc5ccccc5F)nn4)S(=O)(=O)C3)CC2)cc1OC (stereo not drawn)"
  parameter: "activation"
  value-reported: -1.83
- compound: "COc1cccc(-c2cc3nc(NCCOc4ccccc4Cl)n(C)c(=O)c3s2)c1"
  parameter: "activation"
  value-reported: -1.7
- compound: "COc1ccc(NC2=CC(=S)NC(C)(C)C2)cc1"
  parameter: "activation"
  value-reported: -0.87

Hello, I would appreciate it if you could give activation for each entry below.
1. CC(C)(C)NC(=O)C(c1cccnc1)N(C(=O)c1cnco1)c1ccc(C(C)(C)C)cc1 (stereo not drawn)
2. CCOc1ncccc1C(=O)Nc1ccc(S(=O)(=O)Nc2nc(C)cc(C)n2)cc1
3. COc1ccc(S(=O)(=O)/N=C2\C=C(NS(=O)(=O)c3ccccc3)C(=O)c3ccccc32)cc1
4. O=C(CSc1nnc(-c2ccccn2)n1-c1ccccc1)Nc1ccc2cn[nH]c2c1
5. C=C1C(C(C)C)N(C)C2=NC(c3ccccc3)CC(=O)N12 (stereo not drawn)

Result:
1. -2.05
2. -0.22
3. 1.6
4. -0.07
5. -1.49

----------
tested on: Nuclear hormone receptor DAF-12 (Strongyloides stercoralis); experiment: S. stercoralis DAF-12 nuclear receptor activators, primary screen, cell-based, luminescence, HEK293, GRIP1 co-expression, lit1-tk-luc (AID 652126); settings: HEK293 ssDAF-12/GRIP1 lit1-tk-luc reporter, at 6.8 µM, active compounds read high, % of 3 µM dafachronic acid response;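 also: 0% = DMSO-only wells and 100% = 3 µM delta7-dafachronic acid wells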
Hit rate of the full screen: of about 370,000 compounds, about 3,700 (1%) were called active. For the sample, actives were picked, then their nearest neighbours and some compounds at random.
parameter: activation (%)
Numbers only, in %.

- molecule: "COc1ccc(N2CCN(CCNS(=O)(=O)c3ccc([N+](=O)[O-])cc3)CC2)cc1"
  value-reported: -1.33
- molecule: "O=C(CNC(=O)c1ccccc1)OC(C(=O)Nc1cc([N+](=O)[O-])ccc1F)c1ccccc1 (centres undefined)"
  value-reported: -2.1
- molecule: "Cc1ccc(N/C=C/C(=O)c2ccccc2)cc1C"
  value-reported: 3
- molecule: "Cc1cccc(/C(N)=N/OC(=O)c2ccccc2Cl)c1"
  value-reported: 1.96
- molecule: "Cc1cccc(NC(=O)C[C@H]2CC[C@H]3[C@@H](COc4ccc(NC(=O)Nc5ccccc5)cc4C(=O)N3C)O2)c1"
  value-reported: -1.84

Quick one: give me activation for each item below, same order please.
1. Cc1noc(C)c1/C=N/Nc1ccc2ccccc2n1
2. CCOC(=O)c1nn(-c2cccc(C)c2)cc1C(=O)c1ccccc1

Result:
1. 1.61
2. -0.86

Field: activation. Fill in for each record below.
1. CCOC(=O)C(NC(=O)CC(C)C)(Nc1sc2c(c1C(N)=O)CCCC2)C(F)(F)F (centres undefined)
2. Cc1ccc(NC(=O)C2CCCN2C(=O)OCc2ccccc2)cc1C (centres undefined)

Result:
1: -0.54; 2: -0.56
